Attribution: PubChem BioAssay (EPA / NIEHS)

assay-text: APR_HepG2_MitoMass_24hr: Apredica 24-hour HepG2 Assay for Mitochondrial Mass (AID 2282912)
condition: high-content imaging, actives raise or lower the signal
Protocol: APR_HepG2_24hr is a cell-based, multiplexed-readout assay that uses HepG2, a human liver cell line, with measurements taken at 24 hours after chemical dosing in a 384-well plate.APR_HepG2_MitoMass_24hr is one of 10 assay component(s) measured or calculated from the APR_HepG2_24hr assay. […] This assay endpoint, APR_HepG2_MitoMass_24hr, was analyzed with bidirectional fitting relative to DMSO as the negative control and baseline of activity. […]
Activity calls are given as the source filed them. Rule for the calls: active = hit-call score of the fitted dose curve at least 0.9, where 1 is the maximum; inactive = score below 0.9.
Give one outcome, nothing more. List: active, inactive

Q: Lab log entry: `CC(C)(C)c1cc(C(C)(C)C)c(O)c(C(C)(C)C)c1` — outcome as called in the assay?
A: inactive

Q: Name the outcome recorded for `CCCOc1sc(C(=O)N2CCC(c3cc(CN)ccc3F)CC2)c(C)c1Br` in the assay.
A: inactive

Q: Could you kindly confirm the outcome this assay logged for `c1ccc2c(c1)Cc1ccccc1-2` ?
A: inactive

Q: Give the logged outcome of this assay for the following compound: `ClC1=C(Cl)C(Cl)(Cl)C(Cl)=C1Cl`
A: inactive

Q: Which outcome was assigned to CCCCC(CC)COC(=O)CCCCC(=O)OCC(CC)CCCC (configuration not stated) in this test?
A: inactive

Q: Please let me know the test result on file for `Oc1cccc(O)c1` .
A: inactive

Q: Which outcome did this test record for the compound `CC(=O)CC(C)(C)O` ?
A: active

Q: Field: outcome | Entry: `CC[C@H](c1ccc(O)cc1)[C@@H](CC)c1ccc(O)cc1`
A: inactive

Q: Hey, what did the test say about `OCCC(F)(F)C(F)(F)C(F)(F)C(F)(F)C(F)(F)C(F)(F)C(F)(F)C(F)(F)F` ?
A: active

Q: What was the test verdict on `O=C(O)Cc1cc(I)c(Oc2cc(I)c(O)c(I)c2)c(I)c1` ?
A: inactive

Q: What call does the record list for `COc1ccc([N+](=O)[O-])cc1N` ?
A: inactive

Q: Would you mind telling me which call this test gave `OCCC(F)(F)C(F)(F)C(F)(F)C(F)(F)C(F)(F)C(F)(F)F` ?
A: inactive

====

Read-out: Pyruvate Dehydrogenase Kinase 4 (PDK4), PDK4 (gene 5166)
assay-text: LTEA_HepaRG_PDK4: Life Technologies and Expression Analysis (LTEA) Assay for Pyruvate Dehydrogenase Kinase 4 (PDK4) using HepaRG (AID 2283525)
condition: mRNA level, 48 h; actives raise or lower the signal
Calls of active or inactive are those of the source. Rule for the calls: active = hit-call score of the fitted dose curve at least 0.9, where 1 is the maximum; inactive = score below 0.9.
Answer with one of the outcomes active, inactive

Q: I would be grateful if you could indicate the recorded call for CC(O)CO (stereo unspecified) .
A: inactive

Q: Record lookup: outcome of this test for `CC(C)(C)c1cc(C(C)(C)C)c(O)c(C(C)(C)C)c1` ?
A: active

Q: Lab log entry: `CCN(CC)CCNc1ccc(CNC=O)c2sc3ccc(OC)cc3c(=O)c12` — outcome as called in the assay?
A: active

Q: Kindly provide the recorded test outcome for the following compound: `C#C[C@]1(O)CC[C@H]2[C@@H]3CCC4=CC(=O)CC[C@@H]4[C@H]3CC[C@@]21C`
A: inactive

Q: Please indicate how the test categorized `NC(=O)N(O)[C@@H]1C=C[C@H](Oc2cccc(Oc3ccc(F)cc3)c2)C1` .
A: active

Q: GET /call?item= `C[C@@H]1C[C@H]2[C@@H]3CCC4=CC(=O)C=C[C@]4(C)[C@@]3(F)[C@@H](O)C[C@]2(C)[C@@]1(O)C(=O)COP(=O)(O)O` returns the recorded outcome of this test.
A: inactive

Q: Look up the recorded call for `CCCCCCCCCCCCc1ccccc1S(=O)(=O)O` in this test.
A: active

Q: Query: recorded result category for `Oc1cc2ccccc2c2ccccc12` in this test
A: inactive

Q: // outcome(item) with item = `C=C(C)C(=O)OCCC(F)(F)C(F)(F)C(F)(F)C(F)(F)C(F)(F)C(F)(F)F`
A: active

Q: Hi team, can someone confirm the assay call for `CN1CCC[C@H]1c1cccnc1` ?
A: inactive

Q: Entry `CCCCOCCO` : call = ?
A: inactive
